# target-or-system: T1, AMHRII receptor expressed on cells (cov434-AMHRII, Asc 1, META 2815) (human, UniProt Q16671 18-573)
# T1 construct: whole, on cells; The cell line is named in the assay or readout field of each row; also called AMHRII antigen
# T1 sequence (looked up): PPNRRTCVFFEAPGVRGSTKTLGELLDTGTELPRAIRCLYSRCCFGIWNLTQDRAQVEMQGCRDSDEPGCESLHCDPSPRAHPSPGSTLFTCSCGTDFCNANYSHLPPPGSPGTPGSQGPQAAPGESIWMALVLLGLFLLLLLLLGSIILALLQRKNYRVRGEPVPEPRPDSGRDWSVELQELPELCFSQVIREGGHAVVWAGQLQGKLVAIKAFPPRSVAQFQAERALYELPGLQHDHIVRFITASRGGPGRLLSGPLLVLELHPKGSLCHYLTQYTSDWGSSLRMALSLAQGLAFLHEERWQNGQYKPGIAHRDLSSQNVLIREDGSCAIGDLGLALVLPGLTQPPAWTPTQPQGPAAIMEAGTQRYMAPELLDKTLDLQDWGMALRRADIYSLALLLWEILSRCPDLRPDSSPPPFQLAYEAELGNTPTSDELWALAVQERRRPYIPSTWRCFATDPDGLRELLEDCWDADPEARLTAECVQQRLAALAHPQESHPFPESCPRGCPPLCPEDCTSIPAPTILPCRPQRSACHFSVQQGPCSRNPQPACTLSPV
# assay-explanation: saturation binding of 125I-labelled antibody to cov434-AMHRII cells, Scatchard analysis
quantity-measured: Kd (nM)
Give the value in nM but do not write nM after it.

Some solved entries appear below for comparison.
binder: mutated humanized 12G4 antibody 3C-23 produced in YB2/0 (antibody, human IgG1, kappa, V domains shown, Chains without leader; Mutations VH-Q3R, VL-I177T/S179P; also called 3C_23 YB2/0; R901 3C23) VH: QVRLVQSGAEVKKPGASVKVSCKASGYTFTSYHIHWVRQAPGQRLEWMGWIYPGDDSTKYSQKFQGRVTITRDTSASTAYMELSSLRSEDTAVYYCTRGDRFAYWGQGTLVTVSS VL: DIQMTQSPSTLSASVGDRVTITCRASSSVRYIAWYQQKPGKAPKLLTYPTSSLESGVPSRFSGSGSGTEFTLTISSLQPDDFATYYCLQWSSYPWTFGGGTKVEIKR
Kd, nM: 7.33
--
binder: mutated humanized 12G4 antibody 6B-78 produced in YB2/0 (antibody, human IgG1, kappa, V domains shown, Chains without leader; Mutation VL-E184K; also called 6B_78 YB2/0; R901 6B78) VH: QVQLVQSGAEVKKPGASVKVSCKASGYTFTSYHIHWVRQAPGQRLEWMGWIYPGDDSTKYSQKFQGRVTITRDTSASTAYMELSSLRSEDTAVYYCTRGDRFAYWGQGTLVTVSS VL: DIQMTQSPSTLSASVGDRVTITCRASSSVRYIAWYQQKPGKAPKLLIYSTSSLKSGVPSRFSGSGSGTEFTLTISSLQPDDFATYYCLQWSSYPWTFGGGTKVEIKR
Kd, nM: 6.68
--
binder: murine 12G4 monoclonal antibody (antibody, V domains shown, also called mLFB112; original murine 12G4 antibody) VH: QVQLQQSGPELVKPGASVRMSCKASGYTFTSYHIHWVKQRPGQGLEWIGWIYPGDDSTKYNEKFKGKTTLTADKSSSTAYMLLSSLTSEDSAIYFCTRGDRFAYWGQGTLVTVSA VL: QIVLTQSPAIMSASLGEGITLTCSASSSVRYIHWYQQKSGTSPKLLIYSTSNLASGVPSRFSGSGSGTFHSLTISSVEAEDAADYYCLQWSSYPWTFGGGTKLEIK
Kd, nM: 15.4

I am curious: what Kd value has been reported for mutated humanized 12G4 antibody 3C-23K produced in YB2/0 (antibody, human IgG1, kappa, V domains shown, Chains without leader; also called 3C_23K YB2/0; 3C-23K-YB2/0) VH: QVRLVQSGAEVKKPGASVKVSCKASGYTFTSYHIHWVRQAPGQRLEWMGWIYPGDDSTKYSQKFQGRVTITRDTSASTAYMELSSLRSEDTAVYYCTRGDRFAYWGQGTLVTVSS VL: DIQMTQSPSTLSASVGDRVTITCRASSSVRYIAWYQQKPGKAPKLLTYPTSSLKSGVPSRFSGSGSGTEFTLTISSLQPDDFATYYCLQWSSYPWTFGGGTKVEIKR ?
5.3
